Each recorded value in this set is attributed to PubChem BioAssay (NCI).

System: EKVX NSCLC
Test: NCI-60 one-dose screen, 48 h (100 = growth as untreated, 0 = no growth, -100 = all killed)
Conditions: 10 µM unless noted
About 83,000 compounds went through this panel and 20% of them were active in at least one assay; those are over-represented in the sample as a whole.
# label = T if growth >= 70% else F

Reference set (3 entries):
CCCCNC(=S)Nc1ccc(OCc2nc3ccc(Cl)cc3[nH]2)cc1 : F
CC(C)CN1C(=O)/C(=C\C(=O)c2cc3ccccc3oc2=O)c2ccccc21 : T
O=Cc1cncc(-c2ccc3ncnc(N4CCc5cc(F)c(Cl)cc54)c3c2)c1 : F

From here, focus on the item given below.
-- ask Hi team, for "N#Cc1ccc(C(=O)CSc2nc3c(c(Nc4ccc(S(N)(=O)=O)cc4)n2)CCC3)cc1" , is the recorded growth at or above 70%?
-- reply F

---

Tested on: RXF 393 renal
Test: NCI-60 one-dose screen, 48 h
Conditions: 10 µM unless noted
Compounds without any hit were thinned out: in the full panel of roughly 83,000, 20% have a hit. Calls of active or inactive are those of the source. How the source made its calls: active means growth percent below 10; inactive means the rest.
Pick from t (active), f (inactive) when you respond.

COc1ccc(NC(=O)Nc2nc3ccc([N+](=O)[O-])cc3s2)cc1 : t

-- ask What outcome does the record of this test show for "COC(=O)c1c(C(=O)OC)c2c3ccccc3c3ccccc3n2c1C(=O)C(C)(C)C" ?
-- reply f

-- ask What outcome does the record of this test show for "CC[C@]12C=CCN3CC[C@@]4(c5ccc(OC)cc5N(C)[C@H]4[C@@](O)(C(=O)OC)[C@@H]1OC(=O)CCCC[P+](c1ccc(F)cc1)(c1ccc(F)cc1)c1ccc(F)cc1)[C@@H]32" ?
-- reply t

-- ask What outcome does the record of this test show for "Cn1cc(Nc2ncnc(-c3ccc(N4CCCC4)c(C#N)c3)n2)cn1" ?
-- reply f

-- ask What outcome does the record of this test show for "O=C(CSc1nnc(-c2ccc(-c3nc4ccc(Cl)cc4[nH]3)cc2)o1)Nc1ccc(Cl)cc1" ?
-- reply t

-- ask What outcome does the record of this test show for "COc1ccc(N=Nc2c(N)nn3c(-c4ccc5c(c4)C=S=C5)ccnc23)cc1" ?
-- reply f

-- ask What outcome does the record of this test show for "COc1ccc2[nH]cc(-c3cc4nc(-c5cn(C)c6ncc(Br)cc56)cc(N)n4n3)c2c1" ?
-- reply t

-- ask What outcome does the record of this test show for "CCCn1c(NC(=O)c2cccc(C(N)=O)c2)nc2cc(CN3CCCCC3)ccc21" ?
-- reply f

-- ask What outcome does the record of this test show for "N/C(=N\c1nc2ccccc2s1)NC(=O)Nc1ccccc1F" ?
-- reply t

---

System: NCI-H460 lung
Assay: NCI-60 one-dose screen, 48 h (100 = growth as untreated, 0 = no growth, -100 = all killed)
Details: 10 µM unless noted
This is part of a sample that, as a whole, favours compounds with a hit. Of some 83,000 tested, about 20% had one in any assay.
Catalogue of growth values
State the answer as a number, implicitly in %.

COc1ccc(-c2nc3ccc(-c4nnc(SCc5ccccc5)o4)cc3[nH]2)cc1 : -15.7
Nc1nn2c(-c3cc4cc(Br)ccc4oc3=O)ccnc2c1N=Nc1ccc(S(N)(=O)=O)cc1 : 52
COc1ccc(NC(=O)CSc2nnc(-c3ccc(-c4nc5ccccc5[nH]4)cc3)o2)cc1 : 0.884
CC(C)C[C@H](NC(=O)[C@@H]1CCCCCCCCCCC(=O)N[C@@H](CC(=O)N2CCC[C@@H]2C2CCCC2)C(=O)N1)B(O)O : 0.61
ClC(Cn1ncc2c(Nc3cccc(Br)c3)nc(SCCN3CCOCC3)nc21)c1ccc(Br)cc1 (centres undefined) : 27.6

-- ask Identify growth associated with the molecule COc1ccc(NC(=O)NN2C(=O)c3ccccc3N(C)C2c2ccc(OC)cc2)cc1 (centres undefined)
-- reply 109

-- ask Identify growth associated with the molecule "C/C(=N/O)c1ccc(NC(=O)CSc2nnc(-c3ccc4nc(-c5ccc(Cl)cc5)[nH]c4c3)o2)cc1"
-- reply 12.2

-- ask Identify growth associated with the molecule "COc1cc(-c2ccc3ncnc(N4CCc5ccc(Cl)cc54)c3c2)cnc1Cl"
-- reply 12.4

-- ask Identify growth associated with the molecule COc1c2c(c(Br)c3c1C(CCc1ccccc1)N(C)CC3)OCO2 (centres undefined)
-- reply 23.5

-- ask Identify growth associated with the molecule "CS(=O)(=O)Nc1cc(-c2ccc3ncnc(N4CCc5cc(F)c(Cl)cc54)c3c2)cnc1Cl"
-- reply 12.1

-- ask Identify growth associated with the molecule "Nc1nnc(-c2cncc(Br)c2)c(-c2c[nH]c3ccc(Br)cc23)n1"
-- reply 39.6
